- targetOrTestSystem: UniProt:O43614
- Sequence (O43614 whole entry): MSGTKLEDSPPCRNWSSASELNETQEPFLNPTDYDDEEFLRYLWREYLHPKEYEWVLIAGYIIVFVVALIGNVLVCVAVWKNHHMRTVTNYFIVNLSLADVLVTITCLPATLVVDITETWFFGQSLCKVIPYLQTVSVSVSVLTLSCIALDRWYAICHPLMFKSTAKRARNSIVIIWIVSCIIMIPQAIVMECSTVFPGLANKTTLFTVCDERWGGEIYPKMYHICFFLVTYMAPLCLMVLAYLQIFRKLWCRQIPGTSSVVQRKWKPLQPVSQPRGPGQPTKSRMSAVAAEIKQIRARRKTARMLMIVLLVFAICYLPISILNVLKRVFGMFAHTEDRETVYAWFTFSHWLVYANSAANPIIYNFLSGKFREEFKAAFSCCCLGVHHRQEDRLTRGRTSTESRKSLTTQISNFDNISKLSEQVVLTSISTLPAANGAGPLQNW
- assayOverview: IPOne (IP-1) assay in CHO cells expressing human OX2R
- Format: cell-based
- assayContext: CHO, percentage of mean max effect of a reference compound at 1 uM (100% activity by comparison to Orexin A), human OX2R; read-out: Emax (%)
Items are presented alongside their recorded Emax.
quantityMeasured: Emax

                                   compound  targetortestsystem  quantitymeasured  reading
0  CCS(=O)(=O)N[C@H]1CCCN(C(=O)OC(C)C)[C@H]1COC1CC[C@@]2(c3ncc(F)cn3)CC2C1 (stereo partly shown)      UniProt:O43614              Emax     104%
1  COC(=O)N1[C@H](C)C[C@H](NS(=O)(=O)CF)[C@@H]1COC1CCC2(c3ncc(Cl)c(OC)n3)CC2C1 (stereo partly shown)      UniProt:O43614              Emax     101%
2  COC(=O)N1[C@H](C)C[C@H](NS(=O)(=O)C(F)(F)F)[C@@H]1CO[C@@H]1CC[C@]2(c3ncc(F)cn3)C[C@@H]2C1      UniProt:O43614              Emax     103%
3  CC(C)OC(=O)N1CCC[C@H](NS(C)(=O)=O)[C@@H]1CO[C@H]1CC[C@@]2(c3ncc(F)cn3)C[C@H]2C1 (single isomer, unassigned)      UniProt:O43614              Emax     103%
4  CC(C)OC(=O)N1[C@H](C)C[C@H](NS(C)(=O)=O)[C@@H]1COC1CCC2(c3ncc(F)cn3)CC2C1 (mixture of isomers)      UniProt:O43614              Emax     101%
5  COC(=O)N1[C@H](C)C[C@H](NS(C)(=O)=O)[C@@H]1COC1CCC2(c3ncc(C)cn3)CC2C1 (stereo partly shown)      UniProt:O43614              Emax    98.1%
6  COC(=O)N1[C@H](C)C[C@H](NS(C)(=O)=O)[C@@H]1COC1CCC2(c3ncc(F)c(C4CC4)n3)CC2C1 (stereo partly shown)      UniProt:O43614              Emax      84%

Sourced from patent US11680060B2
